This collection of values is drawn from patent US20260258084A1.

Molecular target: T1, IL-23 receptor on the surface of HEK-Blue IL-23 cells (UniProt Q5VWK5 24-629, limits assumed)
T1 sequence (looked up): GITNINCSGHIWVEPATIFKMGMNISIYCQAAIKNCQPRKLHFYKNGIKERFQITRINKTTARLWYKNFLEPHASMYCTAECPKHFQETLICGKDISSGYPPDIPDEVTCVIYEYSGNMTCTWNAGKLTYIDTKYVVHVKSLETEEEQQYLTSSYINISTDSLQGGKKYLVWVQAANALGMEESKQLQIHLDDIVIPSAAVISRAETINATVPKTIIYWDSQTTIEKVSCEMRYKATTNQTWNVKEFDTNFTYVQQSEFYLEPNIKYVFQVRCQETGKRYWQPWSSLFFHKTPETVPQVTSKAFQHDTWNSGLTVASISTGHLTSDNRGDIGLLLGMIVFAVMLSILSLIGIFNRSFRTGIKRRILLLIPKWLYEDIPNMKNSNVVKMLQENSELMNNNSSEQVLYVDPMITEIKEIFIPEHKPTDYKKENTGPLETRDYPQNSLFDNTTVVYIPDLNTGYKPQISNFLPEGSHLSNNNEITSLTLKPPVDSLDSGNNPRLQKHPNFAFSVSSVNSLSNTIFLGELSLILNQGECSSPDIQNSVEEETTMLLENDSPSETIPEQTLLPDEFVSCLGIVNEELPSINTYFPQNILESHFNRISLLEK
Test: cell-based or functional assay
Starred links: 1 amine or outer side, 2 acyl side, 3 side chain; linkers in the order of their positions; H or OH if unused. Positions of bridges follow the written chain, without caps; N, C: chain ends. Non-standard residues stand in square brackets, D forms with d. No end group written: not given here. Yde = (2S)-2-amino-3-[4-[2-(dimethylamino)ethoxy]phenyl]propanoic acid, CN(C)CCOc1ccc(C[C@H](N[*:1])C(=O)[*:2])cc1; Trp(7-Me) = Cc1cccc2c(C[C@H](N)C(=O)O)c[nH]c12; αMeLys(Me2) = CN(C)CCCC[C@](C)(N)C(=O)O; 2Nal = N[C@@H](Cc1ccc2ccccc2c1)C(=O)O; εLys = N[C@@H](CCCCN[*:1])C(=O)[*:2]; AEF = NCCOc1ccc(C[C@H](N)C(=O)O)cc1; 3Pal = N[C@@H](Cc1cccnc1)C(=O)O; Dad = desamino-aspartamic acid; αMeL = CC(C)C[C@](C)(N)C(=O)O; Nmapt = not defined here; Thp = NC1(C(=O)O)CCOCC1; Aib = CC(C)(N)C(=O)O; Ava = NCCCCC(=O)O; Sar = CNCC(=O)O
attribute-measured: pSTAT3 (nM)
Give the number; nM is assumed, so skip it.

Solved entries:
| binder | result-number |
| --- | --- |
| [Ava]CNT[Trp(7-Me)]K(Ac)C[Yde][2Nal][Aib]ENH-NH2 (lactam N-11; disulfide 2-7; SMILES CC(=O)NCCCC[C@@H]1NC(=O)[C@H](Cc2c[nH]c3c(C)cccc23)NC(=O)[C@H]([C@@H](C)O)NC(=O)[C@H](CC(N)=O)NC(=O)[C@@H]2CSSC[C@H](NC1=O)C(=O)N[C@@H](Cc1ccc(OCCN(C)C)cc1)C(=O)N[C@@H](Cc1ccc3ccccc3c1)C(=O)NC(C)(C)C(=O)N[C@H](C(=O)N[C@@H](CC(N)=O)C(=O)N[C@@H](Cc1c[nH]cn1)C(N)=O)CCC(=O)NCCCCC(=O)N2) [Compound of SEQ ID NO: 20] | 3.12 |
| [Ava]CNTWK(Ac)C[Yde][2Nal][Aib]ENNI-NH2 (lactam N-11; disulfide 2-7; also: places amidation at position 13, §1 lactam bridge; @2 disulfide bridge) [Compound of SEQ ID NO: 38] | 11.9 |
| [Dad]C[εLys][Trp(7-Me)]LC[Yde][2Nal][αMeL]KN[3Pal][Sar]-NH2 (disulfide 2-6; lactam 1-10; also: K3 acetylated (K[aAc]), acetyl site not given here, ε-NH2 takes the Cys2 bond) [Compound of SEQ ID NO: 158] | 0.39 |
| [Dad]CNT[Trp(7-Me)]K(Ac)C[Yde][2Nal][Aib]KN[3Pal][Sar]-NH2 (lactam (positions not given here); disulfide 2-7; not fully specified (bridges); printed as Dad(§1)-C(@2)-N-T-Wim-K[Ac]-C(@2)-Yde-Nal-Aib-K(§1)-N-Pal-Sar-NH2) [Compound of SEQ ID NO: 157] | 0.06 |
| [Nmapt]CKWQC[AEF][2Nal][Aib]EA[dL]-NH2 (lactam N-10; disulfide 2-6; not fully specified (residue 3); printed as Nmapt(§1)-C(§3)(@2)-K[aAc](@3)-W-Q-C(@2)-Yae-Nal-Aib-E(§1)-A-(D-Leu)-NH2; reading uncertain; also: K3 acetylated (K[aAc]), acetyl site not given here, ε-NH2 takes the Cys2 bond) [Compound of SEQ ID NO: 19] | 88.3 |
| [Dad]CK[Trp(7-Me)]K(Ac)C[Yde][2Nal][Thp]KN[3Pal][Sar]-NH2 (lactam (positions not given here); disulfide 2-6; not fully specified (residue 3, bridges); printed as Dad(§1)-C(§3)(@2)-K[aAc](@3)-Wim-K[Ac]-C(@2)-Yde-Nal-Thp-K(§1)-N-Pal-Sar-NH2; also: K[aAc]: Cys2 bonded to epsilon-NH2 of acetylated Lys3, acetyl presumably on alpha-amine) [Compound of SEQ ID NO: 105] | 0.1 |

Ask | Need pSTAT3 (nM), item [Ava]CNT[Trp(7-Me)]K(Ac)C[Yde][2Nal][Aib]EN[3Pal][Sar]-NH2 (lactam N-11; disulfide 2-7; SMILES CC(=O)NCCCC[C@@H]1NC(=O)[C@H](Cc2c[nH]c3c(C)cccc23)NC(=O)[C@H]([C@@H](C)O)NC(=O)[C@H](CC(N)=O)NC(=O)[C@@H]2CSSC[C@H](NC1=O)C(=O)N[C@@H](Cc1ccc(OCCN(C)C)cc1)C(=O)N[C@@H](Cc1ccc3ccccc3c1)C(=O)NC(C)(C)C(=O)N[C@H](C(=O)N[C@@H](CC(N)=O)C(=O)N[C@@H](Cc1cccnc1)C(=O)N(C)CC(N)=O)CCC(=O)NCCCCC(=O)N2) [Compound of SEQ ID NO: 64]
Reply | 0.22

Ask | Repeat for the following binder: [Ava]CNT[Trp(7-Me)]K(Ac)C[Yde][2Nal][Thp]ENHX-NH2 (lactam N-11; disulfide 2-7; not fully specified (residue 14); printed as Apt(§1)-C(@2)-N-T-Wim-K[Ac]-C(@2)-Yde-Nal-Thp-E(§1)-N—H-Mep-NH2) [Compound of SEQ ID NO: 55]
Reply | 0.95

Ask | Repeat for the following binder: [Dad]CNT[Trp(7-Me)]LC[Yde][2Nal][αMeLys(Me2)]KN[3Pal]-NH2 (lactam (positions not given here); disulfide 2-7; not fully specified (bridges); printed as Dad(§1)-C(@2)-N-T-Wim-L-C(@2)-Yde-Nal-MKdm-K(§1)-N-Pal-NH2) [Compound of SEQ ID NO: 150]
Reply | 0.13
